pIC50: −log10 of the molar value.
What follows is a collection of pIC50 values obtained with UniProtKB Q01064.
Sequence (Q01064 whole entry): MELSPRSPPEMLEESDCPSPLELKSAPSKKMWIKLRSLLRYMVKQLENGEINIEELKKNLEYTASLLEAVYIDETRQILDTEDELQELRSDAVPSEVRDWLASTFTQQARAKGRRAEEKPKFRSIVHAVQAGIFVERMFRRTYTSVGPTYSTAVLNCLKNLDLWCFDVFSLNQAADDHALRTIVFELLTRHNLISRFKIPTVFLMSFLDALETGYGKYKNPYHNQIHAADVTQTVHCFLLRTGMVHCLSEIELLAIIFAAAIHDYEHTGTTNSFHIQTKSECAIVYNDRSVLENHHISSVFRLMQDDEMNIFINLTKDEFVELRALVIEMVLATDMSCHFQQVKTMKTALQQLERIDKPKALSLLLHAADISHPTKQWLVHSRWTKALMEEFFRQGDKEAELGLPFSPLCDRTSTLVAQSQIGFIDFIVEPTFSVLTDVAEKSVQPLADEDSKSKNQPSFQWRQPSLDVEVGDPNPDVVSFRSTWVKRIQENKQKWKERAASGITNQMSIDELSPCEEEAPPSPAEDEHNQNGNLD
attribute measured: pIC50

1) COc1ccc(Cn2c(C)cc3c(cnn3C(C)C)c2=O)cc1 [Example 21] :: 7.43
2) Cc1nc2c(cnn2C2CCOCC2)c(=O)n1CC1CCCCC1 [Example 3] :: 6.99
3) COc1ccc(Cn2c(C)cc3c(cnn3[C@@H]3CCO[C@H]3C)c2=O)cc1 (relative stereo) [Example 26] :: 7.08
4) COc1ccc(Cn2c(C(C)C)nc3c(cnn3C3CCOCC3)c2=O)cc1 [Example 8] :: 6.68
5) COCc1nc2c(cnn2C2CCOCC2)c(=O)n1Cc1ccc(OC)cc1 [Example 7] :: 6.74
